experiment: Cytotoxic; assay type: cell-based, human; conditions: human, Hep3B cells
metric: IC50 at 24 h (µM)
Write the value in µM as a bare number.

Query :: Report IC50 at 24 h for CC1(C)CCCC(C)(C2CCC3(C)C2C(O)CC2C4(C)CCC(OC(=O)[C@@H](N)Cc5c[nH]c6ccccc56)C(C)(C)C4C(O)CC23C)O1 (stereo partly shown) please.
Result :: 6.99
